Source: patent US11420969B2

biological target: CYP2D6 (Homo sapiens); construct: from tissue; host or cells: human liver microsomes; assay: biochemical; type: in vitro ADME
Sequence (P10635 whole entry): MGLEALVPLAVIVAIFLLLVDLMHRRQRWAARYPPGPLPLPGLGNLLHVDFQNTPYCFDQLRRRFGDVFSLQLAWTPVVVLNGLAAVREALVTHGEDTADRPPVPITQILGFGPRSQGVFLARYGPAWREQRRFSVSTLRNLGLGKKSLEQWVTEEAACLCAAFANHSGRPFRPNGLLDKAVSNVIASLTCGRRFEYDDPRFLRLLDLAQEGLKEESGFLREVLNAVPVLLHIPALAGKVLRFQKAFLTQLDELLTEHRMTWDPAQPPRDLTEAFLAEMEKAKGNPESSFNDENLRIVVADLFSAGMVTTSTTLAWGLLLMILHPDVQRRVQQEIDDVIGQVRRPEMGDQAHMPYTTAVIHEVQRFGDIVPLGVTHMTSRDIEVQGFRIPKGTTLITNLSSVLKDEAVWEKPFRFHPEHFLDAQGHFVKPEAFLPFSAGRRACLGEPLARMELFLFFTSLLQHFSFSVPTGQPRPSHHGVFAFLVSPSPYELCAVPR
pIC50: −log10 of the molar value.
readout.name: pIC50

INSERT INTO measurements (molecule, comparator, result_value) VALUES
  ('CC1(CN)CCN(c2ccc(C(F)(F)F)cc2NC(=O)c2ccc(C3CCOCC3)o2)CC1', '=', 5.30),
  ('O=C(Nc1cc(C2CC2)ccc1N1CCC(O)(CC2CC2)CC1)c1ccc(C2CCOCC2)o1', '=', 5.06),
  ('CC1(C)CCN(c2ccc(C(F)(F)F)cc2NC(=O)c2ccc(-c3ccncc3)o2)CC1', '<', 4.52),
  ('CC1(C(=O)O)CCN(c2ccc(C(F)(F)F)cc2NC(=O)c2ccc(C3CCOCC3)o2)CC1', '<', 4.52),
  ('CC1(C)CCN(c2ccc(C3CC3)cc2NC(=O)c2ccc(C3CCOCC3)o2)CC1', '<', 4.52),
  ('CC1(C)CCN(c2ccc(C(F)(F)F)cc2NC(=O)c2ccc(C3CCOCC3)o2)CC1', '<', 4.52),
  ('O=C(Nc1cc(C2CC2)ccc1N1CCCC(O)CC1)c1ccc(C2CCOCC2)o1 (racemic)', '=', 4.67);
